# Test system: PC-3
# assay_details: cells
# test_conditions: Homo sapiens, PC-3, 96 h, read-out: IC50 ± SEM (nM), PC-3
outcome_measure: IC50

1) COc1cc(C(=O)c2cn(C(c3ccccc3)(c3ccccc3)c3ccccc3)c(Nc3ccccc3)n2)cc(OC)c1OC [e]    > 1000 nM

Now take the following molecule into account.
### Prompt Look up IC50 with PC-3 for this molecule: COc1cc(/C=C\c2csc(-c3ccccc3)n2)cc(OC)c1OC [3a]
### Response > 10000 nM

* * *

# System: LNCaP
# assay_details: cells
# test_conditions: Homo sapiens, 96 h, read-out: IC50 ± SEM (nM), LNCaP
outcome_measure: IC50

Some solved cases for reference:
1. COc1ccc(C(=O)c2cn(S(=O)(=O)c3ccccc3)c(-c3ccccc3)n2)cc1 [11ab]    > 10000 nM
2. COc1cc(-c2nc(C(=O)c3ccc(F)cc3)c[nH]2)cc(OC)c1OC [12eb]    > 10000 nM

### Prompt # lookup: IC50 of COc1cccc(C(=O)c2cn(S(=O)(=O)c3ccccc3)c(-c3ccccc3)n2)c1 [11ac]
### Response > 10000 nM

Origin of values: patent EP2608671B1
